# Test system: SF-539
# test_description: NCI tumour cell line growth inhibition, 48 h
Calls of active or inactive are those of the source. Cut-off read from the data, not from the text of the source: active = GI50 up to about 1.1 µM and inactive = higher.
Labels: T for active, F for inactive

>>> qualitative_label("Brc1ccc2c(-c3csc(-c4c[nH]c5cc(Br)ccc45)n3)c[nH]c2c1")
"F"
>>> qualitative_label("C=CCCC(OCOCCOC)c1cc(C)c(O[Si](C)(C)C(C)(C)C)c(C)c1 (stereo unspecified)")
"F"
>>> qualitative_label("Oc1c(Cl)c2nccnc2c2ccccc12")
"F"
>>> qualitative_label("CCOC(=O)c1[nH]c(CN(C)Cc2[nH]c(C(=O)OCC)c(C)c2C(=O)OCc2ccccc2)c(C(=O)OCc2ccccc2)c1C")
"F"
>>> qualitative_label("O=C1c2c(ccc3c2CCC3)CC12Cc1cc3c(cc1C2)CCC3")
"F"
>>> qualitative_label("COc1ccc(OC)c(C2CCCc3c2cnc2nc(N)nc(N)c32)c1 (stereo unspecified)")
"T"
>>> qualitative_label("Cc1nc2ccccc2nc1CC(=O)C(=O)Nc1ccc(Cl)cc1Cl")
"F"
>>> qualitative_label("CN(NC(=O)CCCl)C1=NCCN1")
"F"
>>> qualitative_label("COc1ccc(C(=O)N2CCc3c([nH]c4ccccc34)C2C(=O)O)o1 (stereo unspecified)")
"F"
>>> qualitative_label("Clc1ccc(C2=Cc3nc2c(-c2ccccc2)c2ccc([nH]2)c(-c2ccccc2)c2nc(c(-c4ccccc4)c4ccc([nH]4)c3-c3ccccc3)C=C2)cc1")
"F"
>>> qualitative_label("N/C(=N\\N=C\\c1cc2ccccc2s1)c1cnccn1")
"F"
>>> qualitative_label("CCOc1c(OC)cc(CNNc2nccs2)cc1OC")
"F"
>>> qualitative_label("C=CCN1C(=O)/C(=C/c2ccc(C)cc2)N=C1SC/C=C/C")
"F"
>>> qualitative_label("Nc1ccc(-c2ncc3cc(-c4cccc(-c5cc6cnc(-c7ccc(N)cc7)nc6c6ccccc56)c4)c4ccccc4c3n2)cc1")
"F"
>>> qualitative_label("O=C(Nc1ccc(C(F)(F)F)cc1[N+](=O)[O-])C(=O)Nn1c(S)nc2ccccc2c1=O")
"F"
>>> qualitative_label("C1=Cc2cccc3occ(c23)C=C1")
"F"
>>> qualitative_label("O=C(Nc1ccc(Cl)cc1)c1cc2c(cc1Cl)SC(NNCCO)=NS2(=O)=O")
"F"
>>> qualitative_label("Cc1nc(N)nc(N)c1CCCCc1ccccc1")
"F"
>>> qualitative_label("Cc1cc(=O)oc2c(CNC(C)C(=O)O)c(O)ccc12 (stereo unspecified)")
"F"
>>> qualitative_label("CCC/C(=N\\NC(=O)c1cc2ccccc2cc1O)C(CC)C(=O)CCC(=O)N(Cc1ccccc1)Cc1ccccc1 (stereo unspecified)")
"F"
>>> qualitative_label("O=[N+]([O-])c1ccc2nnnn2c1")
"F"
>>> qualitative_label("Cc1ccc(N(Cc2ccccc2)Cc2ccccc2)cc1")
"F"
>>> qualitative_label("O=[N+]([O-])c1c(Br)cc(Br)c2c1Nc1c(ccc(Cl)c1Cl)S2")
"F"
>>> qualitative_label("Cc1cc2nc3c(=O)[nH]c(=O)nc-3n(CC(O)C(O)C(O)CO)c2cc1N (stereo unspecified)")
"F"
>>> qualitative_label("N#Cc1nc(-c2ccccc2C(=O)O)oc1N")
"F"
>>> qualitative_label("CC(=O)O[C@H]1CN(S(=O)(=O)c2ccc(C)cc2)C[C@@H]1C1CCCCC1")
"T"
